target: UniProtKB P16473; experiment: Antagonist activity using TSH-induced cAMP generation in human TSHR-stably expressing CHO cells; conditions: human TSH 50 ng/mL
Sequence (P16473 21-764): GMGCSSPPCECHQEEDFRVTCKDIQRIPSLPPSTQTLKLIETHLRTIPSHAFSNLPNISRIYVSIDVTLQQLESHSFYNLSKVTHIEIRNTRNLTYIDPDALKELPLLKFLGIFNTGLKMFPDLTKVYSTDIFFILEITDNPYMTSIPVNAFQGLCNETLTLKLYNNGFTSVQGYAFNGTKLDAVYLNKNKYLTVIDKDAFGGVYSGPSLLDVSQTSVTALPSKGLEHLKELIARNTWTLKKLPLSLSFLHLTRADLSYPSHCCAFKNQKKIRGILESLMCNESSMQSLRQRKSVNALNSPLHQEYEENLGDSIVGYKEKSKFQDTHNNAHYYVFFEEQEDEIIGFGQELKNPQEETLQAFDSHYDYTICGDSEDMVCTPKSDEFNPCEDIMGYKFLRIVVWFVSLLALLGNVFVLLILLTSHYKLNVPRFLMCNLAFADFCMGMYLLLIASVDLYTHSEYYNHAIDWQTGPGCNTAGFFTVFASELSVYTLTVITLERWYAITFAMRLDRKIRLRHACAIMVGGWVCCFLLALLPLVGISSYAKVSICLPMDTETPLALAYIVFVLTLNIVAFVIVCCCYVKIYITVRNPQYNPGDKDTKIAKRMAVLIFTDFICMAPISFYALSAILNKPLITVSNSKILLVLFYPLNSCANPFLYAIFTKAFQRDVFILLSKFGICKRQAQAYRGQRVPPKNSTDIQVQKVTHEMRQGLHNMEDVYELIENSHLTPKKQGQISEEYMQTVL
Observed Property: IC50

In: Provide IC50, tested on UniProtKB P16473, for CC(C)(C)OC(=O)Nc1ccc(-c2ccnnc2CNC(N)=O)c(Cc2ccccc2F)c1F [Example C-1] .
Out: < 300 nM

In: Provide IC50, tested on UniProtKB P16473, for Cc1cnc(CNC(N)=O)c(-c2ccc(NC(=O)OC(C)(C)C)c(F)c2Cc2ccccc2F)c1 [Example A-10] .
Out: 300 to 30000 nM

In: Provide IC50, tested on UniProtKB P16473, for CC(C)(C)OC(=O)Nc1ccc(-c2cccnc2CNC(N)=O)c(Oc2ccccc2F)c1F [Example B-2] .
Out: < 300 nM

In: Provide IC50, tested on UniProtKB P16473, for CC(c1ccccc1)c1cc(NC(=O)OC(C)(C)C)ccc1-c1cccnc1CCC(N)=O (stereo not shown) [Example A-12] .
Out: 300 to 30000 nM

In: Provide IC50, tested on UniProtKB P16473, for CC(C)(C)OC(=O)Nc1ccc(-c2cccnc2CNC(N)=O)c(CN2CC3CCC(C2)O3)c1F [Example F-7] .
Out: 300 to 30000 nM

In: Provide IC50, tested on UniProtKB P16473, for CC(C)(C#N)COC(=O)Nc1ccc(-c2cccnc2CNC(N)=O)c(Cc2ccccc2F)c1F [Example A-7] .
Out: < 300 nM

In: Provide IC50, tested on UniProtKB P16473, for NC(=O)NCc1ncccc1-c1ccc(NC(=O)C2CC2)c(F)c1Cc1ccccc1F [Example G-3] .
Out: 300 to 30000 nM

In: Provide IC50, tested on UniProtKB P16473, for CC(C)(C)OC(=O)Nc1ccc(-c2nccnc2CCC(N)=O)c(Cc2ccccc2)c1F [Example H-1] .
Out: 300 to 30000 nM

In: Provide IC50, tested on UniProtKB P16473, for NC(=O)NCc1ncccc1-c1ccc(NC(=O)OCC2CC2(F)F)c(F)c1Cc1ccccc1F (stereo not shown) [Example A-33] .
Out: < 300 nM

In: Provide IC50, tested on UniProtKB P16473, for CC(C)(C)OC(=O)Nc1ccc(-c2ccnnc2CCC(N)=O)c(Oc2ccccc2F)c1F [Example D-3] .
Out: < 300 nM

In: Provide IC50, tested on UniProtKB P16473, for NC(=O)CCc1ncccc1-c1ccc(NC(=O)OC2CC(F)(F)C2)c(F)c1C(=O)c1ccccc1F [Example E-6] .
Out: 300 to 30000 nM

In: Provide IC50, tested on UniProtKB P16473, for CC(C)(C)OC(=O)Nc1ccc(-c2cccnc2CNC(N)=O)c(CN2CCCC(F)(F)C2)c1F [Example F-6] .
Out: 300 to 30000 nM

In: Provide IC50, tested on UniProtKB P16473, for CC(C)(C)OC(=O)Nc1ccc(-c2cccnc2CNC(N)=O)c(Cc2ncccc2F)c1F [Example F-1] .
Out: 300 to 30000 nM

In: Provide IC50, tested on UniProtKB P16473, for CC(C)(OC(=O)Nc1ccc(-c2cccnc2CNC(N)=O)c(Cc2ccccc2C#N)c1F)C(F)F [Example A-37] .
Out: 300 to 30000 nM

In: Provide IC50, tested on UniProtKB P16473, for NC(=O)NCc1ncccc1-c1ccc(NC(=O)OC[C@H]2C[C@@H]2F)c(F)c1Cc1ccccc1F (relative stereo) [Example A-32] .
Out: < 300 nM

In: Provide IC50, tested on UniProtKB P16473, for C[C@@H](OC(=O)Nc1ccc(-c2cccnc2CCC(N)=O)c(Cc2ncccc2F)c1F)C1CC1 [Example F-3] .
Out: < 300 nM
